Test: LNP size and polydispersity by DLS (Malvern Panalytical)
Type: physicochemical
Conditions: LNP size, mRNA LNPs of Table 18

MOLECULE	Z-avg. (nm·days)
ARK001: mRNA: SP + WP_004031278.1 (Methanobacterium formicicum) + TM/C; SEQ ID NO: 16676 (nucleic acid, listed as DNA) ATGTTCGTGTTCCTCGTGCTCCTGCCCCTCGTCTCCAGCCAGTGCGTGTACCTCATGACACTGAGCCTGCCAGGGTTCGCACATCCCTTCGCACTCCCCCCCTGGTACATCTGGCTGGGCTTCATCGCAGGACTGATCGCCATCGTCATGGTCACCATAATGCTCTGTTGCATGACCTCCTGCTGTAGCTGCCTGAAAGGCTGTTGCAGCTGCGGGAGCTGCTGCAAATTCGACGAAGACGATAGCGAACCTGTGCTCAAAGGGGTGAAGTTGCATTACACATAGTGA	78.82
ARK013: mRNA: SP + mru0143 + STOP; SEQ ID NO: 16687 (nucleic acid, listed as DNA, chemistry not fully specified) ATGTTCGTGTTCCTCGTGCTCCTGCCCCTCGTCTCCAGCCAGTGCGTGTACCTCATGACACTCCCCCTGGACGGACTCGGGCACCCCTTCCCCCTGCCATGA	78.82
ARK004: mRNA: SP + WP_016359091.1 (Methanobrevibacter sp. AbM4) + TM/C; SEQ ID NO: 16679 (nucleic acid, listed as DNA) ATGTTCGTGTTCCTCGTGCTCCTGCCCCTCGTCTCCAGCCAGTGCGTGTACCTGATGATAATCCCAATCAACGGGAGTGCACTCCACATCTTCCCCCTCCCGCCCTGGTACATCTGGCTGGGCTTCATCGCAGGACTGATCGCCATCGTCATGGTCACCATAATGCTCTGTTGCATGACCTCCTGCTGTAGCTGCCTGAAAGGCTGTTGCAGCTGCGGGAGCTGCTGCAAATTCGACGAAGACGATAGCGAACCTGTGCTCAAAGGGGTGAAGTTGCATTACACATAGTGA	78.82

Reference source for all entries: patent US20240189408A1
